The measured values listed here are drawn from PubChem BioAssay AID686978.

experiment: qHTS for Inhibitors of human tyrosyl-DNA phosphodiesterase 1 (TDP1): qHTS in cells in absence of CPT; settings: DT40 Tdp1-/- hTDP1 cells, no CPT, ATP luminescence, 48 h; also: nearly all actives have a fitted effect of over 55% in size
Among all 420,000 compounds or so, about 64,000 (15%) were called active. About 27% were inconclusive and are not listed. Calls follow the shape of the dose curve; as a rule, active = well fitted inhibition curve with a large enough effect; inconclusive = small, poorly fitted or top-dose-only effect; inactive = flat fitted curve, though single readings scatter. The list is a sample of the results.
Log the outcome using a class from yes for active, no for inactive

Please review the entries below; each comes with its answer.
CN1C(=O)/C(=N/OC(=O)c2ccccc2Br)c2ccccc21: no
CCOc1nc(-c2ccc(OC)cc2)ccc1-c1noc(-c2cc(OC)c(OC)c(OC)c2)n1: yes
O=C(O)CN1C(=O)CC(Cc2ccccc2)C1=O (centres undefined): no
CCCCN1C(=O)/C(=C2/C=CC=CN2C)SC1=S: no
COc1ccc(-c2nc3scc(CCNS(=O)(=O)c4cc(F)ccc4OC)n3n2)cc1OC: yes

What is the recorded call for this molecule in the test? `Cc1ccccc1OS(=O)(=O)c1cccc([N+](=O)[O-])c1`
no

Answer briefly: the call reported for COc1ccc2c(c1)SC(C)CC2=O (centres undefined) in this assay.
no

Would you mind telling me which call this test gave CC(OC(=O)CN1C(=O)COc2ccccc21)C(=O)NCc1ccc(F)cc1 (centres undefined) ?
no

Please let me know the test result on file for COc1ccc2c(c1)OC(O)(C(F)(F)C(F)F)CC2=O (centres undefined) .
yes

Dear colleague, could you share the recorded outcome for CCC1(C)CC(=O)NC1=O (centres undefined) when you have a moment?
no
